System: NCI-H522 lung
Assay: NCI-60 one-dose screen, 48 h (100 = growth as untreated, 0 = no growth, -100 = all killed)
Conditions: 10 µM unless noted
Compounds without any hit were thinned out: in the full panel of roughly 83,000, 20% have a hit.
I'd be grateful if you could share measured growth for these entries.
The reply should be a number in %, with the unit left off.

## Task growth for Cn1ccc(=O)nc1 ?
## Result 49

## Task # repeat for CCOC(=O)c1ccccc1-c1c2ccc(=[N+](C)C)cc-2oc2cc(N(C)C)ccc12
## Result 14.2

## Task # repeat for CCN1C(=O)N(CC)C2C1NC(=S)N2/N=C/c1ccc(OC)cc1 (stereo not given)
## Result 16.8

## Task # repeat for CN1CCN(c2ccc(NC(=O)c3cncnc3Nc3ccc(OCc4cccc(F)c4)c(Cl)c3)cc2)CC1
## Result 103

## Task # repeat for Oc1c(CN2CCC(N3CCCCC3)CC2)cc(Cc2cc(CN3CCC(N4CCCCC4)CC3)c(O)c3ncccc23)c2cccnc12
## Result -34.7

----------
System: OVCAR-4 ovarian
Test: NCI-60 one-dose screen, 48 h (100 = growth as untreated, 0 = no growth, -100 = all killed)
Conditions: 10 µM unless noted
The panel holds about 83,000 compounds, 20% with a hit somewhere; the sample as a whole holds those more often.
Mark Y only when growth stays strictly below 80%. Values equal to the cut-off are N.

## Task Determine whether this compound shows growth lower than 80% (ties excluded): O=C1c2ccccc2C(=O)C1c1ccc(Br)cc1
## Result N

## Task # repeat for CN1CCN(C(=S)SCCCCOc2cc(=O)oc3ccccc23)CC1
## Result Y

## Task # repeat for COc1cc2nc3sc(C(=O)Nc4ccc(C(=O)OC(C)C)cc4)c(C(=O)Nc4ccc(Cl)cc4C)n3c(=O)c2cc1OC
## Result Y

## Task # repeat for O=C(CSc1nc(-c2ccccc2)cc(=O)[nH]1)Nc1nc(-c2ccccc2)cs1
## Result N

## Task # repeat for O=C(NC1CC(F)C1)c1cc2cccnc2n1-c1ccc(Cl)c(Cl)c1 (centres undefined)
## Result N

## Task # repeat for C=C1C(=O)O[C@H]2[C@H]1CC/C(COC(=O)/C=C\C(=O)NCc1ccc(Cn3c(=O)sn(CCCCC)c3=O)cc1)=C\CC[C@@]1(C)O[C@@H]21
## Result N

## Task # repeat for Cc1nc2c(=O)nc3s/c(=C\c4ccco4)c(=O)n3c2nc1C
## Result N

## Task # repeat for Cc1cccc(Oc2ccc(Nc3ncnc4ccc(NC(=O)CN5CCN(C)CC5)cc34)cc2Cl)c1
## Result Y

## Task # repeat for Cc1[nH]c(C2CC(c3ccc(C(F)(F)F)c(F)c3)=NN2c2ccccc2)c(C)c1C(=O)NCC(F)(F)F (centres undefined)
## Result N

----------
Tested on: SK-MEL-5 melanoma
Assay: NCI-60 one-dose screen, 48 h (100 = growth as untreated, 0 = no growth, -100 = all killed)
Conditions: 10 µM unless noted
The panel holds about 83,000 compounds, 20% with a hit somewhere; the sample as a whole holds those more often. The source made the active and inactive calls. How the source made its calls: active means growth percent below 10; inactive means the rest.
PROPERTY NAME: growth

## Task growth for O=C1C(Nc2ccccn2)=C(I)C(=O)c2ncccc21 ?
## Result -98.9% (active)

## Task # repeat for Cc1cccc2c1C[C@@]1(C2=O)C(c2ccc(C(C)(C)C)cc2)=NOS1=O (some centres undefined)
## Result 90.3% (inactive)

## Task # repeat for Cn1ccc(=O)nc1
## Result 99.3% (inactive)

## Task # repeat for Cc1cccc(-c2nc(Nc3ccc4ncsc4c3)c3ccccc3n2)n1
## Result 42.4% (inactive)

## Task # repeat for C=C(CNCCc1ccc(O)cc1)[C@@H]1CC[C@]2(CO)CC[C@]3(C)[C@H](CC[C@@H]4[C@@]5(C)CCC(=O)C(C)(C)[C@@H]5CC[C@]43C)[C@@H]12
## Result -4.88% (active)

## Task # repeat for O=C1c2ccccc2C(=O)c2c1c(C(=O)NCc1ccccc1)c1ccccn21
## Result 99.6% (inactive)

## Task # repeat for CCOC(=O)C(=Cc1ccc(-c2ccccc2)cc1)C(=O)OCC
## Result 54.8% (inactive)

## Task # repeat for COc1ccc2nc(Cl)c(/C=C3\CC(c4ccccc4)=NN(c4ccccc4)C3=O)cc2c1
## Result 78.2% (inactive)

## Task # repeat for COC(=O)c1cc(Br)ccc1O
## Result 95.2% (inactive)

## Task # repeat for CC1(C)CC[C@]2(C(=O)N[C@H](CO)Cc3ccccc3)CC[C@]3(C)C(=CC[C@@H]4[C@@]5(C)CCCNC(C)(C)[C@@H]5CC[C@]43C)[C@@H]2C1
## Result 90.7% (inactive)

## Task # repeat for C/C=C(/C)n1cnc2c(Nc3ccccn3)nc(Cl)nc21
## Result 101% (inactive)

## Task # repeat for COc1ccc(-c2nc(/C=C3\C(=O)N(C)c4ccccc43)c3ccccn23)cc1
## Result 65.5% (inactive)

## Task # repeat for C/C(=N\O)c1ccc(NC(=O)CSc2nnc(-c3cc(-c4ccc(S(N)(=O)=O)cc4)nc4ccccc34)n2-c2ccccc2)cc1
## Result 54% (inactive)

## Task # repeat for Cc1c(CC(=S)N2CCOCC2)nnn1-c1cccc(C(F)(F)F)c1
## Result 99.8% (inactive)

## Task # repeat for CC(=O)OC(c1ccccc1)C1CCOC1=O (centres undefined)
## Result 102% (inactive)

## Task # repeat for COc1ccc(CNc2c3ccccc3nc3ccccc23)c(OC)c1
## Result 70.3% (inactive)

## Task # repeat for NS(=O)(=O)c1ccc(C(=O)NN2C(=O)c3c(Br)c(Br)c(Br)c(Br)c3C2=O)cc1
## Result 103% (inactive)

## Task # repeat for CC[C@]12C=CCN3CC[C@@]4(c5ccc(OC)cc5N(C)[C@H]4[C@@](O)(C(=O)OC)[C@@H]1OC(=O)CCC[P+](c1ccccc1)(c1ccccc1)c1ccccc1)[C@@H]32
## Result -91.5% (active)

## Task # repeat for CC(=O)O[C@H]1C[C@@H]2C(C)(C)C(=O)CC[C@@]2(C)c2ccc(C(C)C)cc21
## Result 103% (inactive)

## Task # repeat for CCNc1ccc(-c2nc3ccccc3n3cccc23)cc1
## Result 71.2% (inactive)

## Task # repeat for CC1(C)CC(=O)c2c(nn(-c3ccc(Br)cc3)c2-c2cn(-c3ccccc3)nc2-c2cccnc2)C1
## Result 97.2% (inactive)

## Task # repeat for O=C(NC1CC(F)C1)c1cc2cccnc2n1-c1ccc(Cl)c(Cl)c1 (centres undefined)
## Result 98.9% (inactive)

## Task # repeat for O=C(C1=Cc2cc3ccccc3n2Cc2cnnn21)c1ccc(O)cc1
## Result 54.2% (inactive)

## Task # repeat for CN(CCCNC(=O)Cc1ccc2ccc3cccc4ccc1c2c34)CCCNc1cc(-c2ccc3ccccc3c2)nc2ccccc12
## Result -93.1% (active)

## Task # repeat for COc1cc(/C=C2\CN(S(=O)(=O)c3ccccc3)C/C(=C\c3cc(CN4CCCCC4)c(O)c(OC)c3)C2=O)cc(CN2CCCCC2)c1O
## Result -94.8% (active)

## Task # repeat for CCOC(=O)c1c(C)nc2c(c1N)/C(=C/c1ccc(OC)cc1)C(=O)N2Cc1ccccc1
## Result 61.8% (inactive)

## Task # repeat for COc1cc(OC)cc(-c2ccc(-c3ccc(C(=N)N)o3)o2)c1
## Result 76% (inactive)

## Task # repeat for COc1ccc2[nH]cc(-c3nc(-c4c[nH]c5c(Cl)nccc45)cs3)c2c1
## Result 55.6% (inactive)

## Task # repeat for COc1ccc(C(=O)N2c3ccccc3Sc3ccccc32)c(C(F)(F)F)c1
## Result 5.29% (active)

## Task # repeat for CSc1nc(C)c([N+](=O)[O-])c(N)n1
## Result 102% (inactive)

## Task # repeat for Oc1ccc(/C=C/c2ccc(O)cc2)cc1
## Result 52% (inactive)

## Task # repeat for CN(Cc1ccccc1)c1nc(Cl)c(C2CC(c3ccccc3)=NN2c2ccccc2)s1 (centres undefined)
## Result 98.8% (inactive)

## Task # repeat for CC(=O)c1ccc(Nc2nccc(-c3ccc4ccccc4c3)n2)cc1
## Result 97.6% (inactive)

## Task # repeat for CO[C@H]1CC(=O)n2c3ccccc3c3c4c(c5c6ccccc6n1c5c32)C(=O)NC4=O
## Result 60.7% (inactive)

## Task # repeat for COc1cc(OC)c2sc(-c3ccc(-n4cncc4-c4cc(OC)c(OC)c(OC)c4)cc3)nc2c1
## Result 20.9% (inactive)

## Task # repeat for CN1CCN(CCCOc2cccc3nc(Nc4ccc(F)c(F)c4)ccc23)CC1
## Result -100% (active)

## Task # repeat for CC(C)(C)n1cc(-c2ccnc(NCCCNS(=O)(=O)c3ccc(C(F)(F)F)cc3)c2)c(-c2cccc(F)c2)n1
## Result 78.9% (inactive)

## Task # repeat for Cc1c2ccncc2c(C)c2c1c1cc(CO)ccc1n2C
## Result 6.31% (active)

## Task # repeat for CN(C)S(=O)(=O)Oc1ccc(-c2sc3cc(OS(=O)(=O)N(C)C)ccc3c2C(=O)c2ccc(OCCN3CCCCC3)cc2)cc1
## Result 67.5% (inactive)
